Data provenance is PubChem BioAssay (NCI).

# Tested on: MDA-N
# assay.notes: NCI tumour cell line growth inhibition, 48 h
In this section we review reported TGI values for a set of compounds.

Take a look at these entries with their results.
molecular.string	TGI
Cn1c(Cl)cn2c3nc4ccccc4nc3c(=O)c(C#N)c12	> 100 µM
CCN(CC)CCn1c2ccccc2c(=O)c2c(O)ccc(O)c21	34.4 µM

According to the records, this compound Cc1c2c(Cl)c3c(c(Cl)c2c(C)c2c(Cl)c4c(c(Cl)c12)C(c1ccccc1)(c1ccccc1)C4(c1ccccc1)c1ccccc1)C(c1ccccc1)(c1ccccc1)C3(c1ccccc1)c1ccccc1 displays TGI of > 100 µM

---

# Test system: SNB-75 CNS
# assay.notes: NCI tumour cell line growth inhibition, 48 h
In this section we review reported TGI values for a set of compounds.

Take a look at these entries with their results.
compound	readout.name	test.value
CN(C)CC1CCCC(CN(C)C)C1=NOC(=O)c1ccccc1 (stereo not drawn)	TGI	> 100 µM
CC1=NN(C(=O)CC(=O)Nc2ccc(C)cc2)C(=O)C1N=Nc1ccc(S(=O)(=O)c2ccc(N=NC3C(=O)N(C(=O)CC(=O)Nc4ccc(C)cc4)N=C3C)cc2)cc1 (stereo not drawn)	TGI	> 100 µM

According to the records, this compound Nc1[nH]c(=S)c2c(N)n[nH]c2c1C(=O)Nc1ccccc1 displays TGI of > 100 µM
